# Test system: Key Broadleaf Weed and Crop Species
# Test name: Post-emergent Test II herbicidal activity (Table 15)
# Type: in vivo
# Conditions: Helianthus annuus, post-emergence, 336 h, sunflower (Helianthus annuus), 35 g ai/ha, 14 d, read-out: Visual Growth Reduction (%) 14 Days After Application, HELAN
Listed next: entries and their corresponding pest or weed control at 35 g/ha.

Reference set, count: 4
{"columns": ["Chemical structure", "Study target", "Readout label", "Endpoint value"],
 "data": [
  ["COC(=O)c1nc(-c2cccc3ccsc23)cc(N)c1Cl", "Key Broadleaf Weed and Crop Species", "pest or weed control at 35 g/ha", "45 to 59%"],
  ["COC(=O)c1nc(-c2ccc3ccsc3c2)cc(N)c1Cl", "Key Broadleaf Weed and Crop Species", "pest or weed control at 35 g/ha", "60 to 74%"],
  ["COC(=O)c1nc(-c2ccc(Cl)c3occc23)cc(N)c1Cl", "Key Broadleaf Weed and Crop Species", "pest or weed control at 35 g/ha", "0 to 29%"],
  ["COC(=O)c1nc(-c2ccc3cc[nH]c3c2F)cc(N)c1Cl", "Key Broadleaf Weed and Crop Species", "pest or weed control at 35 g/ha", "60 to 74%"]
]}

Q: I have this compound here, COC(=O)c1nc(-c2ccc3ccoc3c2F)c(F)c(N)c1Cl , and I need its recorded pest or weed control at 35 g/ha.
Ans: 60 to 74%

Q: COC(=O)c1nc(-c2ccc(Cl)c3[nH]ccc23)c(F)c(N)c1Cl , same question.
Ans: 60 to 74%

Q: Input COc1c(N)nc(-c2ccc3cc[nH]c3c2)nc1C(=O)O
Ans: 60 to 74%

Q: Param item: COC(=O)c1nc(-c2ccc3ccoc3c2F)cc(N)c1Cl
Ans: 45 to 59%

Q: Moving on to the next compound: COc1c(N)nc(-c2ccc(Cl)c3occc23)nc1C(=O)O
Ans: 75 to 84%

Q: Can you handle COC(=O)c1nc(-c2ccc3ocnc3c2)c(F)c(N)c1Cl next?
Ans: 85 to 94%

Q: Then what about the compound COC(=O)c1nc(-c2ccc3cc[nH]c3c2F)nc(N)c1Cl ?
Ans: 30 to 44%
